Form field: peptide microarray binding signal (one value per entry).
- target: T1, HaloTag-ATRX ADD domain (163-292)
- T1 chain: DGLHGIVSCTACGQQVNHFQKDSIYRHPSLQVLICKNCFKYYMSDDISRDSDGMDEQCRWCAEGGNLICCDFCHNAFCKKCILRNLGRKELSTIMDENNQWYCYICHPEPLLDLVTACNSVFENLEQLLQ
- test protocol: peptide microarray binding signal (635 nm), min-max normalized on array (fraction of array maximum); higher = stronger binding
- applied conditions: peptide region: Unmod H4 variant; binder concentration: 500 nM
Please give the numeric answer without any surrounding text.

INSERT INTO measurements (binder, observable, readout_value) VALUES
  ('GGKGLGKGGAKRH [Unmod H4 variant G G K G L G K G G A K R H]', 'peptide microarray binding signal', 0.011),
  ('YEETRGVLKVFLE [Unmod H4 variant Y E E T R G V L K V F L E]', 'peptide microarray binding signal', 0.00157),
  ('GGVKRISGLIYEE [Unmod H4 variant G G V K R I S G L I Y E E]', 'peptide microarray binding signal', 0.0107);

Then this binder:
Prompt line: Param item = ISGLIYEETRGVL [Unmod H4 variant I S G L I Y E E T R G V L] ; retrieve measured peptide microarray binding signal.
Response line: 0.00776
